EXPERIMENTAL SYSTEM: SET-PP2Ac binding (Homo sapiens, UniProt Q01105)
Construct: His; purchased Genway (SET-His); Abnova (PP2Ac-GST) GWB-ATG319; H00005515
Sequence (Q01105 1-277 isoform Q01105-2): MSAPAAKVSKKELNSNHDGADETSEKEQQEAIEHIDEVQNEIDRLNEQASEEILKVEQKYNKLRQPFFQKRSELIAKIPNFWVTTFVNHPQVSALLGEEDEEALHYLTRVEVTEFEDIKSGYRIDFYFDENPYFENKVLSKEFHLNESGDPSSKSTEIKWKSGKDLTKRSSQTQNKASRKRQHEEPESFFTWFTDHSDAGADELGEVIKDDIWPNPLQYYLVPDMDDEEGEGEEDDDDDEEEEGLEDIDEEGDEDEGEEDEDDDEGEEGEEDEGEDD
MEASUREMENT DESCRIPTION: disruption of SET-PP2Ac binding (surface plasmon resonance, co-IP)
Below, each of the compounds is paired with its reported minimal concentration to disrupt SET-PP2Ac binding value.

Before answering, review these 8 worked examples.
C#Cc1cccc(Nc2nc3ccccc3nc2Nc2cccc(C#C)c2)c1
100 to 200 nM
Clc1cc(Cl)cc(Nc2nc3ccccc3nc2Cl)c1
100 to 200 nM
FC(F)(F)Oc1ccc(Nc2nc3ccccc3nc2Nc2ccc(OC(F)(F)F)cc2)cc1
<100 nM
FC(F)(F)Oc1ccc(Nc2nc3ccccc3nc2Cl)cc1
>200 nM
O=[N+]([O-])c1ccc2nc(Nc3cccc(Br)c3)c(Nc3cccc(Br)c3)nc2c1
>200 nM
COc1cccc(Nc2nc3ccc([N+](=O)[O-])cc3nc2Nc2cccc(OC)c2)c1
>200 nM
C#Cc1cccc(Nc2nc3cc([N+](=O)[O-])ccc3nc2Nc2ccc(OC)cc2)c1
100 to 200 nM
C#Cc1cccc(Nc2nc3ccc([N+](=O)[O-])cc3nc2Nc2cccc(C#C)c2)c1
50 to 100 nM

Input line: Reported minimal concentration to disrupt SET-PP2Ac binding for SET-PP2Ac binding (Homo sapiens, UniProt Q01105), given FS(F)(F)(F)(F)c1ccc(Nc2nc3ccccc3nc2Nc2ccc(S(F)(F)(F)(F)F)cc2)cc1 ?
Output line: 50 nM

Input line: Reported minimal concentration to disrupt SET-PP2Ac binding for SET-PP2Ac binding (Homo sapiens, UniProt Q01105), given FC(F)(F)c1cc(Nc2nc3ccccc3nc2Nc2ccc(Cl)c(C(F)(F)F)c2)ccc1Cl ?
Output line: <100 nM

Input line: Reported minimal concentration to disrupt SET-PP2Ac binding for SET-PP2Ac binding (Homo sapiens, UniProt Q01105), given FS(F)(F)(F)(F)c1ccc(Nc2nc3ccccc3nc2Cl)cc1 ?
Output line: >200 nM

Input line: Reported minimal concentration to disrupt SET-PP2Ac binding for SET-PP2Ac binding (Homo sapiens, UniProt Q01105), given Nc1ccc2nc(Nc3ccc(C(F)(F)F)cc3)c(Nc3ccc(C(F)(F)F)cc3)nc2c1 ?
Output line: >200 nM

* * *

Tested on: H358
MEASUREMENT DESCRIPTION: cell viability of H358 cells, 1 and 10 uM
Format: cell-based
EXPERIMENTAL PARAMETERS: Homo sapiens, NCI-H358; 1 uM
Below, each of the compounds is paired with its reported viability at 1 µM value.
Numeric answer only, unit % assumed.

Before answering, review these 5 worked examples.
C#Cc1cccc(Nc2nc3cc([N+](=O)[O-])ccc3nc2Nc2ccc(OC)cc2)c1
101
COc1ccc(Nc2nc3ccc([N+](=O)[O-])cc3nc2Nc2cccc(O)c2)cc1
97.3
C#Cc1cccc(Nc2nc3ccc([N+](=O)[O-])cc3nc2Nc2cccc(C#C)c2)c1
115
c1ccc(Oc2ccc(Nc3nc4ccccc4nc3Nc3ccc(Oc4ccccc4)cc3)cc2)cc1
120
NS(=O)(=O)c1ccc(Nc2nc3ccc([N+](=O)[O-])cc3nc2Nc2ccc(S(N)(=O)=O)cc2)cc1
113

Input line: Data request, read-out viability at 1 µM, for FC(F)(F)c1cc(Nc2nc3ccccc3nc2Nc2ccc(Cl)c(C(F)(F)F)c2)ccc1Cl
Output line: 66.8

Input line: Data request, read-out viability at 1 µM, for FS(F)(F)(F)(F)c1ccc(Nc2nc3ccccc3nc2Cl)cc1
Output line: 116

Input line: Data request, read-out viability at 1 µM, for O=[N+]([O-])c1ccc2nc(Nc3cccc(Br)c3)c(Nc3cccc(Br)c3)nc2c1
Output line: 36.6
